protocol: xn = mol fraction of the nth substance listed
measurement_conditions: 288.15 K; 98.93 kPa; Liquid; x1 = 0.03
metric_name: mass density (kg/m3)

CC(O)CO (centres undefined) [1,2-propanediol] + O = 1007.94
CCCO [propan-1-ol] + O = 985.17
OCCCO [propan-1,3-diol] + O = 1007.24
OCC(O)CO [glycerol] + O = 1032.52

* * *

protocol: xn = mol fraction of the nth substance listed
measurement_conditions: 303.15 K; 98.93 kPa; Liquid; x1 = 0.05
metric_name: mass density (kg/m3)

OCCCO [propan-1,3-diol] + O = 1008
CCCO [propan-1-ol] + O = 973.96
OCC(O)CO [glycerol] + O = 1046.58
CC(O)CO (centres undefined) [1,2-propanediol] + O = 1008.65

* * *

protocol: xn = mol fraction of the nth substance listed
measurement_conditions: 283.15 K; 98.93 kPa; Liquid; x1 = 0.005
metric_name: mass density (kg/m3)

OCC(O)CO [glycerol] + O = 1005.76
CC(O)CO (centres undefined) [1,2-propanediol] + O = 1001.15
OCCCO [propan-1,3-diol] + O = 1000.99
CCCO [propan-1-ol] + O = 996.91

* * *

protocol: xn = mol fraction of the nth substance listed
measurement_conditions: 293.15 K; 98.93 kPa; Liquid; x1 = 0.002
metric_name: mass density (kg/m3)

OCCCO [propan-1,3-diol] + O = 998.61
OCC(O)CO [glycerol] + O = 1000.6
CC(O)CO (centres undefined) [1,2-propanediol] + O = 998.73
CCCO [propan-1-ol] + O = 996.58

* * *

protocol: xn = mol fraction of the nth substance listed
measurement_conditions: 288.15 K; 98.93 kPa; Liquid; x1 = 0.002
metric_name: mass density (kg/m3)

OCCCO [propan-1,3-diol] + O = 999.49
OCC(O)CO [glycerol] + O = 1001.53
CCCO [propan-1-ol] + O = 997.69
CC(O)CO (centres undefined) [1,2-propanediol] + O = 999.66

* * *

protocol: xn = mol fraction of the nth substance listed
measurement_conditions: 298.15 K; 98.93 kPa; Liquid; x1 = 0.002
metric_name: mass density (kg/m3)

CC(O)CO (centres undefined) [1,2-propanediol] + O = 997.56
OCC(O)CO [glycerol] + O = 999.43
CCCO [propan-1-ol] + O = 995.4
OCCCO [propan-1,3-diol] + O = 997.63

* * *

protocol: xn = mol fraction of the nth substance listed
measurement_conditions: 298.15 K; 98.93 kPa; Liquid; x1 = 0.03
metric_name: mass density (kg/m3)

CC(O)CO (centres undefined) [1,2-propanediol] + O = 1005.17
OCC(O)CO [glycerol] + O = 1029.73
OCCCO [propan-1,3-diol] + O = 1004.91
CCCO [propan-1-ol] + O = 982.56

* * *

protocol: xn = mol fraction of the nth substance listed
measurement_conditions: 298.15 K; 98.93 kPa; Liquid; x1 = 0.005
metric_name: mass density (kg/m3)

OCC(O)CO [glycerol] + O = 1002.93
CCCO [propan-1-ol] + O = 993.76
CC(O)CO (centres undefined) [1,2-propanediol] + O = 998.32
OCCCO [propan-1,3-diol] + O = 998.44

From: the NIST ThermoML archive (doi:10.1016/j.jct.2008.07.005)
